The reported measurements were obtained from ChEMBL document CHEMBL1933015.

test: Permeability from basal to apical side across human Caco2 cells; assay type: ADME, cell-based; conditions: Caco-2, read-out: permeability
result_type: Papp B→A (×10⁻⁶ cm/s)
// note: answer is a bare numeric in ×10⁻⁶ cm/s

Problem: Look at this compound and give its reported Papp B→A. C[C@H](NC(=O)C(=O)Nc1ccccc1C(C)(C)C)C(=O)N[C@@H](CC(=O)O)C(=O)COc1c(F)c(F)cc(F)c1F [EMRICASAN]
Solution: 10

Problem: Look at this compound and give its reported Papp B→A. C[C@H](NC(=O)C(=O)Nc1ccccc1C(C)(C)C)C1=N[C@H]2CC(=O)O[C@@]2(COc2c(F)c(F)cc(F)c2F)O1
Solution: 10

----------
experiment: Tmax in Sprague-Dawley rat at 10 mg/kg, po; assay type: ADME, organism-based; design: dose 10 mg/kg, route oral; conditions: in vivo
result_type: Tmax (min)
// note: answer is a bare numeric in min

Problem: Look at this molecule and give its reported Tmax. CC[C@@H](C(=O)N[C@@H](CC(=O)O)C(=O)COc1c(F)c(F)cc(F)c1F)n1cccc(NC(=O)OC)c1=O
Solution: 19.8

----------
assay: AUC (0 to infinity) in Sprague-Dawley rat at 10 mg/kg, iv; assay type: ADME, organism-based; design: time infinity, dose 10 mg/kg, route intravenous; details: plasma
result_type: AUC(0-inf) (ng·h/mL)
// note: answer is a bare numeric in ng·h/mL

Problem: Look at this compound and give its reported AUC(0-inf). CC[C@@H](C(=O)N[C@@H](CC(=O)O)C(=O)COc1c(F)c(F)cc(F)c1F)n1cccc(NC(=O)OC)c1=O
Solution: 6160

----------
Consider the following molecules and their measured Papp A→B readings.
experiment: Permeability from apical to basal side across human Caco2 cells; type: ADME, cell-based; details: Caco-2, read-out: permeability
// note: answer is a bare numeric in ×10⁻⁶ cm/s

Problem: Look at this molecule and give its reported Papp A→B. C[C@H](NC(=O)C(=O)Nc1ccccc1C(C)(C)C)C(=O)N[C@@H](CC(=O)O)C(=O)COc1c(F)c(F)cc(F)c1F
Solution: 0.5

Problem: Look at this molecule and give its reported Papp A→B. C[C@H](NC(=O)C(=O)Nc1ccccc1C(C)(C)C)C1=N[C@H]2CC(=O)O[C@@]2(COc2c(F)c(F)cc(F)c2F)O1
Solution: 0.5

----------
assay: Oral bioavailability in Sprague-Dawley rat at 10 mg/kg; assay type: ADME, organism-based; conditions: in vivo
result_type: bioavailability (%)
// note: answer is a bare numeric in %

Problem: Look at this molecule and give its reported bioavailability. CC[C@@H](C(=O)N[C@@H](CC(=O)O)C(=O)COc1c(F)c(F)cc(F)c1F)n1cccc(NC(=O)OC)c1=O
Solution: 14
